# Tested on: large crabgrass (Digitaria sanguinalis)
# ASSAY_COMMENT: Test A pre-/postemergence plant response
# Format: in vivo
# SETUP_CONDITIONS: Preemergence, 500 g ai/ha; visual injury, 0 to 100 scale (0 no effect, 100 complete control), approx. ten days
ASSAY_ENDPOINT: Plant response rating, Crabgrass, Large
API note: the answer field is a bare number with no unit suffix.

Record excerpt, results attached:
CCCn1c(-c2ccc(Br)cc2)ncc(C(=O)C2=C(O)CCCC2=O)c1=O :: 30
COCCn1c(-c2cccs2)ncc(C(=O)C2=C(O)CCCC2=O)c1=O :: 90

Prompt line: Entry O=C1CCCC(O)=C1C(=O)c1cnc(-c2cccc(Br)c2)n(-c2ccccc2)c1=O needs its Plant response rating, Crabgrass, Large filled in; supply it.
Response line: 100

The measured values listed here are drawn from patent US8952024B2.
